Tested on: 276233-004-R-J1-PDC complex spheroid viability
Assay: Anticancer human tumor 276233-004-R-J1-PDC patient-derived colon adenocarcinoma cell line growth inhibition [GQUAD]
Conditions: second compound 3.16 µM; first compound 1 µM; stronger effect = lower value
readoutType: viability, T/C (%)

{"columns": ["compound", "systemUnderTest", "readoutType", "unitOfMeasurement", "numericResult"],
 "data": [
  ["CC1COCCN1c1cc(C2(O)CC3CCC(C2)O3)c2cnn(-c3ccn[nH]3)c2n1 (stereo not given) + Cc1cnc(CNC(=O)c2c(=O)c3ccc(N4CCCN(C)CC4)nc3n3c2sc2ccccc23)cn1", "276233-004-R-J1-PDC complex spheroid viability", "viability, T/C", "%", 44.8],
  ["COc1ncnc(C2CC2)c1-c1ncc2cnn(Cc3ccc(-c4nc(C(F)(F)F)cn4C(C)C)cc3)c2n1 + Cc1cnc(CNC(=O)c2c(=O)c3ccc(N4CCCN(C)CC4)nc3n3c2sc2ccccc23)cn1", "276233-004-R-J1-PDC complex spheroid viability", "viability, T/C", "%", 62.4],
  ["COc1cc(C2c3cc4c(cc3C(OC3OC5COC(C)OC5C(O)C3O)C3COC(=O)C23)OCO4)cc(OC)c1O (stereo not given) + Cc1cnc(CNC(=O)c2c(=O)c3ccc(N4CCCN(C)CC4)nc3n3c2sc2ccccc23)cn1", "276233-004-R-J1-PDC complex spheroid viability", "viability, T/C", "%", 76.9],
  ["COc1ccc([C@@H](O)c2cc(-c3ncnc4cc(N5CCOCC5)ccc34)c(F)cc2Cl)nn1 + CN(C)c1ccc(Nc2c3ccc(NC(=O)CCN4CCCC4)cc3nc3cc(NC(=O)CCN4CCCC4)ccc23)cc1", "276233-004-R-J1-PDC complex spheroid viability", "viability, T/C", "%", 42.2],
  ["Nc1ccn(C2OC(CO)C(O)C2(F)F)c(=O)n1 (stereo not given) + Cc1cnc(CNC(=O)c2c(=O)c3ccc(N4CCCN(C)CC4)nc3n3c2sc2ccccc23)cn1", "276233-004-R-J1-PDC complex spheroid viability", "viability, T/C", "%", 73.2]
]}

###

Overview of reported viability, T/C across a group of compounds:
System: 276233-004-R-J1-PDC complex spheroid viability
Assay: Anticancer human tumor 276233-004-R-J1-PDC cell line growth inhibition [GQUAD];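 note: spheroids exposed to drugs for seven days; 100% = DMSO vehicle control viability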
Settings: second compound 3.16 µM; first compound 0.0316 µM; stronger effect = lower value

{"columns": ["compound", "systemUnderTest", "viability, T/C / %"],
 "data": [
  ["Cc1cccc(N(C)C(=O)C2C(O)CCN2c2nc(C)cc(C(F)(F)F)c2C#N)c1 (stereo not given) + Cc1[nH]c2ccc(F)cc2c1-c1nc2c3cccnc3c3ncccc3c2[nH]1", "276233-004-R-J1-PDC complex spheroid viability", 60.5],
  ["CC1COCCN1c1cc(C2(O)CC3CCC(C2)O3)c2cnn(-c3ccn[nH]3)c2n1 (stereo not given) + Cc1cnc(CNC(=O)c2c(=O)c3ccc(N4CCCN(C)CC4)nc3n3c2sc2ccccc23)cn1", "276233-004-R-J1-PDC complex spheroid viability", 55.7],
  ["CC(=O)O[C@H]1C(=O)[C@@]2(C)[C@H]([C@H](OC(=O)c3ccccc3)[C@]3(O)C[C@H](OC(=O)[C@H](O)[C@@H](NC(=O)c4ccccc4)c4ccccc4)C(C)=C1C3(C)C)[C@]1(OC(C)=O)CO[C@@H]1C[C@@H]2O + Cc1cnc(CNC(=O)c2c(=O)c3ccc(N4CCCN(C)CC4)nc3n3c2sc2ccccc23)cn1", "276233-004-R-J1-PDC complex spheroid viability", 91.5],
  ["CC(C)(O)C1CCC(Nc2ccc3ncc(-c4cccc(C(F)(F)F)c4)n3n2)CC1 (stereo not given) + Cc1[nH]c2ccc(F)cc2c1-c1nc2c3cccnc3c3ncccc3c2[nH]1", "276233-004-R-J1-PDC complex spheroid viability", 17.1],
  ["Nc1ccn(C2OC(CO)C(O)C2(F)F)c(=O)n1 (stereo not given) + CN(C)c1ccc(Nc2c3ccc(NC(=O)CCN4CCCC4)cc3nc3cc(NC(=O)CCN4CCCC4)ccc23)cc1", "276233-004-R-J1-PDC complex spheroid viability", 64.2],
  ["CC[C@@]1(O)C(=O)OCc2c1cc1n(c2=O)Cc2cc3c(CN(C)C)c(O)ccc3nc2-1 + Cc1[nH]c2ccc(F)cc2c1-c1nc2c3cccnc3c3ncccc3c2[nH]1", "276233-004-R-J1-PDC complex spheroid viability", 51.6],
  ["Nc1ccn(C2OC(CO)C(O)C2(F)F)c(=O)n1 (stereo not given) + Cc1cnc(CNC(=O)c2c(=O)c3ccc(N4CCCN(C)CC4)nc3n3c2sc2ccccc23)cn1", "276233-004-R-J1-PDC complex spheroid viability", 80],
  ["CCc1c2c(nc3ccc(O)cc13)-c1cc3c(c(=O)n1C2)COC(=O)[C@]3(O)CC + Cc1cnc(CNC(=O)c2c(=O)c3ccc(N4CCCN(C)CC4)nc3n3c2sc2ccccc23)cn1", "276233-004-R-J1-PDC complex spheroid viability", 67.4],
  ["C=CCn1c(=O)c2cnc(Nc3ccc(N4CCN(C)CC4)cc3)nc2n1-c1cccc(C(C)(C)O)n1 + CN(C)c1ccc(Nc2c3ccc(NC(=O)CCN4CCCC4)cc3nc3cc(NC(=O)CCN4CCCC4)ccc23)cc1", "276233-004-R-J1-PDC complex spheroid viability", 56.9],
  ["CCCS(=O)(=O)Nc1ccc(F)c(C(=O)c2c[nH]c3ncc(-c4ccc(Cl)cc4)cc23)c1F + CN(C)c1ccc(Nc2c3ccc(NC(=O)CCN4CCCC4)cc3nc3cc(NC(=O)CCN4CCCC4)ccc23)cc1", "276233-004-R-J1-PDC complex spheroid viability", 62.1],
  ["CC(=O)O[C@H]1C(=O)[C@@]2(C)[C@H]([C@H](OC(=O)c3ccccc3)[C@]3(O)C[C@H](OC(=O)[C@H](O)[C@@H](NC(=O)c4ccccc4)c4ccccc4)C(C)=C1C3(C)C)[C@]1(OC(C)=O)CO[C@@H]1C[C@@H]2O + Cc1[nH]c2ccc(F)cc2c1-c1nc2c3cccnc3c3ncccc3c2[nH]1", "276233-004-R-J1-PDC complex spheroid viability", 20.4],
  ["O=C(c1cc(Cc2n[nH]c(=O)c3ccccc23)ccc1F)N1CCN(C(=O)C2CC2)CC1 + Cc1cnc(CNC(=O)c2c(=O)c3ccc(N4CCCN(C)CC4)nc3n3c2sc2ccccc23)cn1", "276233-004-R-J1-PDC complex spheroid viability", 76.9],
  ["CC1COCCN1c1cc(C2(S(C)(=N)=O)CC2)nc(-c2ccnc3[nH]ccc23)n1 (stereo not given) + Cc1cnc(CNC(=O)c2c(=O)c3ccc(N4CCCN(C)CC4)nc3n3c2sc2ccccc23)cn1", "276233-004-R-J1-PDC complex spheroid viability", 64.5],
  ["Cc1cccc(N(C)C(=O)C2C(O)CCN2c2nc(C)cc(C(F)(F)F)c2C#N)c1 (stereo not given) + CN(C)c1ccc(Nc2c3ccc(NC(=O)CCN4CCCC4)cc3nc3cc(NC(=O)CCN4CCCC4)ccc23)cc1", "276233-004-R-J1-PDC complex spheroid viability", 51],
  ["O=C(NO)c1cnc(N2CCN(S(=O)(=O)c3ccc4ccccc4c3)CC2)nc1 + CN(C)c1ccc(Nc2c3ccc(NC(=O)CCN4CCCC4)cc3nc3cc(NC(=O)CCN4CCCC4)ccc23)cc1", "276233-004-R-J1-PDC complex spheroid viability", 74.2],
  ["O=c1[nH]cc(F)c(=O)[nH]1 + Cc1[nH]c2ccc(F)cc2c1-c1nc2c3cccnc3c3ncccc3c2[nH]1", "276233-004-R-J1-PDC complex spheroid viability", 54.6],
  ["COc1ncnc(C2CC2)c1-c1ncc2cnn(Cc3ccc(-c4nc(C(F)(F)F)cn4C(C)C)cc3)c2n1 + CN(C)c1ccc(Nc2c3ccc(NC(=O)CCN4CCCC4)cc3nc3cc(NC(=O)CCN4CCCC4)ccc23)cc1", "276233-004-R-J1-PDC complex spheroid viability", 53.2],
  ["CC1COCCN1c1cc(C2(O)CC3CCC(C2)O3)c2cnn(-c3ccn[nH]3)c2n1 (stereo not given) + Cc1[nH]c2ccc(F)cc2c1-c1nc2c3cccnc3c3ncccc3c2[nH]1", "276233-004-R-J1-PDC complex spheroid viability", 51.4],
  ["Nc1ccn(C2OC(CO)C(O)C2(F)F)c(=O)n1 (stereo not given) + Cc1[nH]c2ccc(F)cc2c1-c1nc2c3cccnc3c3ncccc3c2[nH]1", "276233-004-R-J1-PDC complex spheroid viability", 53.8],
  ["C=CC(=O)N1CCN(c2nc(=O)n(-c3c(C)ccnc3C(C)C)c3nc(-c4c(O)cccc4F)c(F)cc23)C(C)C1 (stereo not given) + Cc1cnc(CNC(=O)c2c(=O)c3ccc(N4CCCN(C)CC4)nc3n3c2sc2ccccc23)cn1", "276233-004-R-J1-PDC complex spheroid viability", 75.1]
]}
